# EXPERIMENT: Metabolic stability in Sprague-Dawley rat microsomes assessed as degradation in presence of NADPH at 10 uM measured up to 60 mins by HPLC analysis
# Assay type: ADME, Microsome
# RUN_PARAMETERS: Sprague-Dawley, rat microsomes, read-out: Drug degradation
MEASURED_QUANTITY: metabolised at 1 h, 10 µM

Inquiry: Provide one value: measured metabolised at 1 h, 10 µM of O=C(O)c1cc(NCc2ccccc2Cl)ccc1N1CCOCC1
Reply text: 17%

----------
# Test system: Bacillus cereus
# EXPERIMENT: Inhibition of Bacillus cereus phosphatidylcholine specific phospholipase C (PC-PLC BC) assessed as enzyme activity by measuring formation of resorufin fluorophore 10 uM by Amplex-Red based fluorescence assay relative to control
# Design: scale not given: the % may be the effect or the level left
I'd be grateful if you could share measured Activity for these entries.
Numbers only, in %.

Reference set (4 entries):
Inquiry: Give the measured Activity for O=C(O)c1cc(NCc2ccccc2Br)ccc1C1CCOCC1
Reply text: 116

Inquiry: Answer with reported Activity of COC(=O)c1ccc(NCc2ccccc2)cc1N1CCOCC1
Reply text: 102

Inquiry: Tell me its Activity given COC(=O)c1ccc(NCc2cccc(F)c2)cc1N1CCOCC1 as the entry.
Reply text: 78.9

Inquiry: For the molecule COC(=O)c1cc(NCc2ccc(Cl)cc2)ccc1C1CCOCC1 , give its measured Activity value.
Reply text: 112

Lab note: each molecule below needs its Activity filled in.
1. O=C(NO)c1ccc(NCc2cccc(Cl)c2)cc1N1CCOCC1
2. COc1ccc(CNc2ccc(C3CCOCC3)c(C(=O)O)c2)cc1
3. O=C(NO)c1cc(NCc2ccccc2Br)ccc1C1CCOCC1
4. O=C(O)c1cc(NCc2cccc(Cl)c2)ccc1C1CCOCC1
5. O=C(O)c1cc(NCc2ccccc2)ccc1C1CCOCC1
6. COC(=O)c1ccc(NCc2ccccc2Cl)cc1N1CCOCC1
7. COc1cccc(CNc2ccc(C(=O)O)c(N3CCOCC3)c2)c1

Reply text:
1: 47.5; 2: 104; 3: 75.5; 4: 109; 5: 54; 6: 75.9; 7: 106

# return Activity for each item in the list
1. COc1ccc(CNc2ccc(C3CCOCC3)c(C(=O)NO)c2)cc1
2. O=C(O)c1ccc(NCc2ccc(F)cc2)cc1N1CCOCC1

Reply text:
80.4
62.4
